The measured values listed here are drawn from PubChem BioAssay (NCI).

For each of the molecules below, state its TGI.
- System: UACC-257 melanoma
- MEASUREMENT PROTOCOL: NCI tumour cell line growth inhibition, 48 h

Examples with their reported TGI follow.
> print(dat)
                                   molecule  assay.result
1  CCCCCCCCCCCCOC1C(CNC(=O)C2OC3OC(C)(C)OC3C2NC(=O)CN2CCN(c3ccc(OC)cc3)CC2)OC2OC(C)(C)OC21 (stereo unspecified)       12.7 µM
2  COc1ccc(N=NC(=O)NC(CC(C)C)C(=O)NCC(=O)O)cc1 (stereo unspecified)      > 100 µM
3  CCCCCc1c(CCCC)c(=O)[nH]c2nc(NC(=O)CCCC)ccc12      > 100 µM
4  N#Cc1cnc(Nc2cc(NC[C@H]3CNCCO3)c(C(F)(F)F)cn2)cn1       45.8 µM
5  O=C(CCN1CCCCC1)N1CCc2c([nH]c3ccccc23)C1c1cccnc1 (stereo unspecified)       34.7 µM

Items follow; give TGI for each.
1. Cn1c2c(c3ccccc31)CCN1C(=O)CCC21 (stereo unspecified)
2. CCN(CC)CSc1nc2ccccc2[nH]1
3. COC1OC2COC(C)(C)OC2C(OC(C)=O)C1NC(=O)N(CCCl)N=O (stereo unspecified)

Response line:
> 10 µM
> 100 µM
> 100 µM

Items follow; give TGI for each.
1. C=CCc1c(O)c2nsnc2c2nsnc12
2. Cc1cc2c(-c3nc4ccccn4c3N)c(O)c(O)cc2c(O)c1-c1c(C)cc2c(-c3nc4ccccn4c3N)c(O)c(O)cc2c1O

Response line:
1. > 10 µM
2. > 25 µM

Prompt line: TGI for CCCCc1ccc(Nc2nc(OC)c3ncn(C4CC(O)C(CO)O4)c3n2)cc1 (stereo unspecified) ?
Response line: 34.6 µM

###

- System: SK-MEL-5 melanoma
- MEASUREMENT PROTOCOL: NCI tumour cell line growth inhibition, 48 h
PARAMETER: TGI

> print(dat)
                                   compound  parameter  assay.result
1  O=[S@]1c2ccc3ccccc3c2N[C@@H]2[C@H]1[C@H]1C=C[C@@H]2C1        TGI      > 100 µM
2  Cn1cc(-c2cnn3c(N)c(Br)c(C4CCCNC4)nc23)cn1 (centres undefined)        TGI       18.7 µM
3  C/C(=C(\c1ccc(OCCN2CCCCCC2)cc1)c1ccc(OC(=O)c2ccccc2)cc1)c1ccc(Cl)cc1        TGI       8.84 µM
4  CN(/N=C/c1ccnc2ccccc12)c1c([N+](=O)[O-])cc([N+](=O)[O-])cc1[N+](=O)[O-]        TGI      > 100 µM
5  CC1CCC2CC(=O)OC([C@@H]3C(=O)O[C@@H](C4=CCCC4)C4C(C)CCC43)C12 (some centres undefined)        TGI      > 100 µM
6        Nc1ccccc1C(=O)CCC1C(=O)NC(=S)NC1=O        TGI      > 100 µM
7  COC(=O)c1cc2c3ccccc3n3c2c(n1)-c1[nH]c2ccccc2c(=O)c1C3        TGI      > 100 µM
8  CCc1ccc(COC(=O)C2=C(C)NC(C)=C(C(=O)OCc3ccc(CC)cn3)C2C2=COCCO2)nc1        TGI       26.1 µM

Now look at this entry.
Prompt line: TGI for COC1OC2COC(C)(C)OC2C(OC(C)=O)C1NC(=O)N(CCCl)N=O (centres undefined) ?
Response line: > 100 µM

###

For each of the compounds below, state its TGI.
- Test system: SK-OV-3 ovarian
- MEASUREMENT PROTOCOL: NCI tumour cell line growth inhibition, 48 h

Items follow; give TGI for each.
1. Cc1cc(Nc2nc(N[C@@H](C)c3ncc(F)cn3)ncc2Cl)n[nH]1
2. COc1ccc(OC)c(/C=N/N=C(\N)NO)c1
3. CC(=O)N1N=C(c2ccc(Nc3nc(Nc4ccc(F)cc4)nc(Nc4ccc(F)cc4)n3)cc2)CC1c1ccc(N(C)C)cc1 (stereo unspecified)
4. CO[C@H]1CC(O[C@@H]2/C(C)=C/C[C@@H]3C[C@@H](C[C@]4(CC[C@H](C)[C@@H](C5CCCCC5)O4)O3)OC(=O)[C@@H]3C=C(C)/C(=N/O)[C@H]4OC/C(=C\C=C\[C@@H]2C)[C@]43O)O[C@@H](C)C1O (stereo partly specified)
5. Cc1nc2c(o1)C(=Nc1ccccc1)c1nc(C)oc1C2=Nc1ccccc1
6. CC1(C)CCCC(C)(C2CCC3(C)C2C(O)CC2C4(C)CCC(O)C(C)(C)C4CCC23C)O1 (stereo unspecified)
7. CCCSc1ccc2[nH]c(N3C(=O)/C(=C/c4ccc(SC)cc4)N=C3c3ccccc3)cc2c1

Response line:
> 100 µM
> 100 µM
53.7 µM
2.86 µM
40.4 µM
> 100 µM
> 50 µM

Items follow; give TGI for each.
1. CC(=O)[CH-]C(=O)c1ccccc1.CC(=O)[CH-]C(=O)c1ccccc1.O=S(=O)([O-])c1cc([O-])c2c([O-])cc(S(=O)(=O)[O-])cc2c1.[Na+].[Zr+4]
2. CN1CCN(C(=O)COc2ccc(/C=C3\CC4C5CC=C6CC(Cl)CCC6(C)C5CCC4(C)C3=O)cc2)CC1 (stereo unspecified)
3. CC[C@@H](C)/C=C(C)/C=C/C(=O)c1c(O)c(-c2ccc(O)cc2)cn(O)c1=O
4. CC(C)=CCCC(C)CCOS(=O)C(F)(F)F (stereo unspecified)

Response line:
> 100 µM
> 100 µM
21.7 µM
> 100 µM

###

- Test system: M14 melanoma
- MEASUREMENT PROTOCOL: NCI tumour cell line growth inhibition, 48 h
Parameter threshold = 20 µM. Response is Condition met when TGI meets or exceeds it, else Condition not met.

Answered cases to consult:
COMPOUND	ANSWER LABEL
CCOc1ccccc1N=Nc1c(-c2ccccc2)nn(C(=O)CC(=O)Nc2cccc(C)c2)c1-c1ccccc1	Condition met
CC(=O)N1N=C(c2ccc(Nc3nc(Nc4ccc(F)cc4)nc(Nc4ccc(F)cc4)n3)cc2)CC1c1ccc(N(C)C)cc1 (stereo unspecified)	Condition not met
C/C=C1/CC(C)C(C)(O)C(=O)OCC2C(O)CN3CCC(OC1=O)C23 (stereo unspecified)	Condition met
CN(C)N1C(=O)S/C(=C\c2ccc([N+](=O)[O-])cc2)C1=O	Condition met
O=c1c(Cl)c(Cl)cnn1CCCl	Condition not met
CNS(=O)(=O)NNS(=O)(=O)c1ccc(OC)cc1	Condition met

Prompt line: Quick check: does O=C(NCC1CCCO1)c1ccc(NC2=C(Cl)C(=O)N(Cc3ccccc3)C2=O)cc1 (stereo unspecified) have TGI greater than or equal to 20 µM?
Response line: Condition met

Prompt line: Quick check: does CC(C)=CCC[C@@H](C)C1=C(O)C(Nc2ccccc2Cl)=C(C)C(=O)C1=O have TGI greater than or equal to 20 µM?
Response line: Condition met

Prompt line: Quick check: does c1ccc(CNCCN(CCNCc2ccccn2)Cc2ccc3ccccc3c2)nc1 have TGI greater than or equal to 20 µM?
Response line: Condition not met

Prompt line: Quick check: does O=C1C2C3CC(C4C5C=CC(C5)C34)C2C2C3CC(C12)C1C2C=CC(C2)C31 (stereo unspecified) have TGI greater than or equal to 20 µM?
Response line: Condition met

Prompt line: Quick check: does COc1c(-c2ccccc2)nc2ccc(Oc3ccccc3)nn12 have TGI greater than or equal to 20 µM?
Response line: Condition met

Prompt line: Quick check: does COc1cc(OC)cc(-c2cc(=O)c3cc4c(cc3[nH]2)OCO4)c1 have TGI greater than or equal to 20 µM?
Response line: Condition met

Prompt line: Quick check: does CCOC(=O)CC(NC(=O)c1[nH]cnc1/N=N/N(C)C)C(=O)OCC (stereo unspecified) have TGI greater than or equal to 20 µM?
Response line: Condition met

Prompt line: Quick check: does Clc1cccc(C2N3CCCCC3[C@@H]3c4[nH]c5ccccc5c4CCN23)c1 (stereo partly specified) have TGI greater than or equal to 20 µM?
Response line: Condition met

Prompt line: Quick check: does COC(=O)[C@@H]1Cc2c([nH]c3ccccc23)[C@H](c2ccccc2)N1 have TGI greater than or equal to 20 µM?
Response line: Condition met

Prompt line: Quick check: does Nc1nc(NCCCO)cc(=O)[nH]1 have TGI greater than or equal to 20 µM?
Response line: Condition met

Prompt line: Quick check: does Cc1cc(C)c(-c2noc(-c3ccc(Cl)cc3)c2C2=NCCCN2)c(C)c1 have TGI greater than or equal to 20 µM?
Response line: Condition not met

Prompt line: Quick check: does COc1cccc(C2SC(N)=Nc3c2c(C)nn3C(=O)Cc2ccccc2)c1 (stereo unspecified) have TGI greater than or equal to 20 µM?
Response line: Condition met

Prompt line: Quick check: does C=CCC(N[C@@H](CO)c1ccccc1)c1cn(C(=O)OCC)c2ccccc12 (stereo partly specified) have TGI greater than or equal to 20 µM?
Response line: Condition met

Prompt line: Quick check: does Nc1ccccc1C(=O)CCC1C(=O)NC(=S)NC1=O have TGI greater than or equal to 20 µM?
Response line: Condition met

Prompt line: Quick check: does COC(=O)c1cc(NC(=O)Cc2c[nH]c3ccccc23)cn1C have TGI greater than or equal to 20 µM?
Response line: Condition met

Prompt line: Quick check: does COC(=O)C1C(=O)O[C@@H](c2cc(OC)c(OC)cc2OC)C1C(=O)OC (mixture of isomers) have TGI greater than or equal to 20 µM?
Response line: Condition met

Prompt line: Quick check: does Cc1cc(C)c(-c2c(N)cc(Br)cc2Br)c(N)c1 have TGI greater than or equal to 20 µM?
Response line: Condition not met

Prompt line: Quick check: does O=C(O)C1[O][Sb][O]C(C(=O)O)C1O (stereo unspecified) have TGI greater than or equal to 20 µM?
Response line: Condition met

Prompt line: Quick check: does C#CCN(c1ccc(C(=O)N[C@@H](CCC(=O)N[C@H](CCC(=O)O)C(=O)O)C(=O)O)cc1)C1CCc2cc3nc(CO)[nH]c(=O)c3cc21 (stereo partly specified) have TGI greater than or equal to 20 µM?
Response line: Condition met
